# TEST NAME: Cell viability assay (alamarBlue)
# Type: cell-based, human
# MEASUREMENT CONDITIONS: human, RD cells
Entries and their measured CC50 at 12 h follow.
Express your answer in µM, writing the number without its unit.

[[record]]
structure = "CC(=O)OC[C@]1(C)[C@H](O)CC[C@@]2(C)C(C/C=C3/C(=O)OC[C@@H]3Oc3cccc4cccnc34)=C(C)CC[C@H]12"
endpoint = "CC50 at 12 h"
test_result = 29.9


// moving on: another record for CC50 at 12 h
Query: What does the record list as CC50 at 12 h for CC(=O)OC[C@]1(C)C(=O)CC[C@@]2(C)C(C/C=C3/C(=O)OC[C@@H]3Oc3cccc4cccnc34)=C(C)CC[C@@H]21 ?
Reply: 29.6
